ASSAY_PROTOCOL: Drug repurposing screens with cells derived from glioblastoma tumor samples (AID 1345199); also: % is scaled to controls: 0 for no effect and ±100 for the full control effect; nearly all actives have a fitted effect of over 40% in size
EXPERIMENTAL_SETUP: GBM patient neurospheres viability, ATP luminescence, 48 h; at 45.9 µM (top of the series); tumour line B
Results filed as inconclusive are left out.
PARAMETER: activity, negative = cell killing (%)
Numeric answer only, unit % assumed.

>  <MOLECULE>
C=C1/C(=C\C=C2/CCC[C@]3(C)[C@@H]([C@H](C)OCCC(C)(C)O)CC[C@@H]23)C[C@@H](O)C[C@@H]1O

>  <MEASURE_UNIT>
%

>  <QUANTITATIVE_READOUT>
-19.1

$$$$
>  <MOLECULE>
N[C@@H](C(=O)N[C@@H]1C(=O)N2C(C(=O)O)=C(CSc3cn[nH]n3)CS[C@H]12)c1ccc(O)cc1

>  <MEASURE_UNIT>
%

>  <QUANTITATIVE_READOUT>
-1.12

$$$$
>  <MOLECULE>
CCNC(=O)[C@@H]1CCCN1C(=O)[C@H](CCCN=C(N)N)NC(=O)[C@H](CC(C)C)NC(=O)[C@@H](CC(C)C)NC(=O)[C@H](Cc1ccc(O)cc1)NC(=O)[C@H](CO)NC(=O)[C@H](Cc1c[nH]c2ccccc12)NC(=O)[C@H](Cc1cnc[nH]1)NC(=O)[C@@H]1CCC(=O)N1

>  <MEASURE_UNIT>
%

>  <QUANTITATIVE_READOUT>
-5.52

$$$$
>  <MOLECULE>
NCCNCCN

>  <MEASURE_UNIT>
%

>  <QUANTITATIVE_READOUT>
-28

$$$$

Task item: Bench note: what activity, negative = cell killing did `C#C[C@]1(OC(C)=O)CC[C@H]2[C@@H]3CCC4=CC(=O)CC[C@@H]4[C@H]3CC[C@@]21C` show?
Reply: -16

Task item: Bench note: what activity, negative = cell killing did COc1cc([C@@H]2c3cc4c(cc3C(O[C@@H]3O[C@@H]5CO[C@@H](C)O[C@H]5[C@H](O)[C@H]3O)C3COC(=O)[C@@H]32)OCO4)cc(OC)c1OP(=O)(O)O (some centres undefined) show?
Reply: -18.7

* * *

ASSAY_PROTOCOL: qHTS for Inhibitors of Plasmodium falciparum (HB3) proliferation (AID 504318); also: nearly all actives have a fitted effect of over 60% in size
EXPERIMENTAL_SETUP: P. falciparum HB3 in erythrocytes, SYBR Green DNA, 72 h; series mostly up to 7.21 µM
Records with an inconclusive call do not appear. Calls of active or inactive are those of the source. Calls follow the shape of the dose curve; as a rule, active = well fitted inhibition curve with a large enough effect; inconclusive = small, poorly fitted or top-dose-only effect; inactive = flat fitted curve, though single readings scatter.
Give one outcome, nothing more. List: 1.0 (active), 0.0 (inactive)

Task item: Per the records of this test, what outcome belongs to `O=C1C=C(c2ccccc2)CCC1` ?
Reply: 0.0

Task item: Per the records of this test, what outcome belongs to COC1=CC2C(=O)C(C1=O)C1c3ccccc3CC21 (centres undefined) ?
Reply: 0.0

Task item: Per the records of this test, what outcome belongs to CCN1C(=NCc2ccccc2)NC(c2cccc(C(F)(F)F)c2)C(C(=O)OC)=C1C (centres undefined) ?
Reply: 0.0

Task item: Per the records of this test, what outcome belongs to COCC1=C(C(=O)OC)C(c2ccccc2)N(C(C)=O)C(=O)N1 (centres undefined) ?
Reply: 0.0

Task item: Per the records of this test, what outcome belongs to CCN1C(=NCCCCO)NC(c2cccc(C(F)(F)F)c2)C(C(=O)OC)=C1C (centres undefined) ?
Reply: 0.0

Task item: Per the records of this test, what outcome belongs to `CC(CCN1CCCc2nc(C)c(C)cc21)=NO[C@@H](C)c1cc(-c2c(C)cc(C)cc2C)no1` ?
Reply: 0.0

Task item: Per the records of this test, what outcome belongs to `CC(C)=CCCC(C)=CCON=C1C[C@@H](O)[C@@H](O)[C@@H]2[C@H]3C(=O)N(c4ccc(F)cc4F)C(=O)[C@@H]3CC[C@H]12` ?
Reply: 0.0

Task item: Per the records of this test, what outcome belongs to `COc1ccc(-c2nc(-c3ccccc3)oc2Nc2c(C)cccc2C)cc1` ?
Reply: 0.0

Task item: Per the records of this test, what outcome belongs to `O=C1C2=C(C(=O)c3ccccc31)[C@H]1O[C@](CCCCN3C(=O)c4ccccc4C3=O)(Cc3c1ccc1ccccc31)O2` ?
Reply: 1.0
